Biological target: Cytochrome P450 3A4 (Homo sapiens, UniProt P08684)
Sequence (P08684 whole entry, canonical isoform): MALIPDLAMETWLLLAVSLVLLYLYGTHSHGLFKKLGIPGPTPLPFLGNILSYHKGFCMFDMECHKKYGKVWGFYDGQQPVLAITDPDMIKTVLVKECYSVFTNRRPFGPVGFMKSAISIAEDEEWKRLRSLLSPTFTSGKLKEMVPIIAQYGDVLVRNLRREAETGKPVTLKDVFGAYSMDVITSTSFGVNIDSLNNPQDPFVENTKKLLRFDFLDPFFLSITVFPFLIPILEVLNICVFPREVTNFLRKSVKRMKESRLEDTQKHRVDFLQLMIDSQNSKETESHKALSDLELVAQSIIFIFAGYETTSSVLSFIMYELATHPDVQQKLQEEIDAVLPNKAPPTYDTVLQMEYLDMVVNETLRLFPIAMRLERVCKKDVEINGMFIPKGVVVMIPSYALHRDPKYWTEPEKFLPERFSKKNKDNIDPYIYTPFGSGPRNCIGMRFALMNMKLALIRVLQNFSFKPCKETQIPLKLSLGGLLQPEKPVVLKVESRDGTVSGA
Assay: Inhibition of CYP3A4 […] isoform in human liver microsomes
Format: ADME, Microsome
pIC50: −log10 of the molar value.
VALUE KIND: pIC50

smiles_representation=O[C@@H](CN1c2cccc(-c3cccc(OC(F)(F)F)c3)c2OC[C@@H]1c1cccc(OC(F)(F)C(F)F)c1)C(F)(F)F recorded_result="< 4.00"

* * *

Assay: Aqueous solubility at pH 2.0
Format: physicochemical
Conditions: aqueous medium
VALUE KIND: solubility (µg/mL)

smiles_representation=O[C@@H](CN1c2cccc(-c3cccc(OC(F)(F)F)c3)c2CC[C@@H]1c1cccc(OC(F)(F)C(F)F)c1)C(F)(F)F readout_qualifier=< recorded_result=1
smiles_representation=O[C@@H](CN1c2cccc(-c3cccc(OC(F)(F)F)c3)c2OC[C@@H]1c1cccc(OC(F)(F)C(F)F)c1)C(F)(F)F readout_qualifier== recorded_result=11

* * *

Test: Half life in human liver microsomes
Assay type: ADME, Microsome
Recorded half-life for the following molecules
VALUE KIND: half-life (min)

smiles_representation=O[C@H](CF)CN1c2cccc(-c3cccc(OC(F)(F)F)c3)c2OC[C@@H]1c1cccc(OC(F)(F)C(F)F)c1 value_kind=half-life unit_of_measure=min recorded_result=21
smiles_representation=O[C@@H](CN1c2cccc(-c3cccc(OC(F)(F)F)c3)c2OC[C@@H]1c1cccc(OC(F)(F)C(F)F)c1)C(F)(F)F value_kind=half-life unit_of_measure=min recorded_result=62

* * *

Target: Cholesteryl ester transfer protein (Homo sapiens) (UniProt P11597)
Sequence (P11597 whole entry): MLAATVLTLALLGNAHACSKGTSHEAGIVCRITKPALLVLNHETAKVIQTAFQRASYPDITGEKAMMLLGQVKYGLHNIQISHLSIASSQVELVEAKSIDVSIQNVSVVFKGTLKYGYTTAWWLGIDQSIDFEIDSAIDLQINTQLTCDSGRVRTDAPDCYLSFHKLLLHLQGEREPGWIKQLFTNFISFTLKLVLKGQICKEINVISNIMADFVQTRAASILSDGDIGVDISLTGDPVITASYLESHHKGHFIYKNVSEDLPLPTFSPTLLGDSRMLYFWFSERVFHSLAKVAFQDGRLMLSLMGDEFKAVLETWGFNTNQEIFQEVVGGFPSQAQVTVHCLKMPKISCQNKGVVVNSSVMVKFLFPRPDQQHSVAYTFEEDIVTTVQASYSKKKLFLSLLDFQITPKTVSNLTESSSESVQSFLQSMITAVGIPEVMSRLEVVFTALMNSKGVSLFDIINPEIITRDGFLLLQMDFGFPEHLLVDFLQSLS
Test: Inhibition of human cholesteryl ester transfer protein at 1 uM by scintillation proximity assay
# label = criterion met if inhibition >= 40% else criterion not met

compound=O[C@@H](CN1c2cccc(-c3cccc(OC(F)(F)F)c3)c2OC[C@H]1c1cccc(OC(F)(F)C(F)F)c1)C(F)(F)F label_class="criterion not met"
compound="OC(CN1c2cccc(-c3cccc(OC(F)(F)F)c3)c2OCC1c1cccc(OC(F)(F)C(F)F)c1)C(F)(F)F (mixture of isomers)" label_class="criterion met"
compound="OC(CN1c2cccc(-c3cccc(OC(F)(F)F)c3)c2OCC1c1ccc(OC(F)(F)F)cc1)C(F)(F)F (mixture of isomers)" label_class="criterion not met"
compound=O[C@H](CF)CN1c2cccc(-c3cccc(OC(F)(F)F)c3)c2OC[C@@H]1c1cccc(OC(F)(F)C(F)F)c1 label_class="criterion met"
compound=O[C@H](CN1c2cccc(-c3cccc(OC(F)(F)F)c3)c2OC[C@H]1c1cccc(OC(F)(F)C(F)F)c1)C(F)(F)F label_class="criterion not met"
compound=O[C@@H](CN1c2cccc(-c3cccc(OC(F)(F)F)c3)c2OC[C@@H]1c1cccc(OC(F)(F)F)c1)C(F)(F)F label_class="criterion met"
compound=C[C@H](O)CN1c2cccc(-c3cccc(OC(F)(F)F)c3)c2OC[C@@H]1c1cccc(OC(F)(F)C(F)F)c1 label_class="criterion met"

* * *

Molecular target: Cholesteryl ester transfer protein (Homo sapiens)
Assay: Inhibition of human cholesteryl ester transfer protein at 1 uM by scintillation proximity assay
VALUE KIND: inhibition (%)

compound="OC(CN1c2cccc(-c3cccc(F)c3)c2OCC1c1cccc(OC(F)(F)C(F)F)c1)C(F)(F)F (mixture of isomers)" value_kind=inhibition recorded_result=79
compound=O[C@@H](CN1c2cccc(-c3cc(F)cc(F)c3)c2OC[C@@H]1c1cccc(OC(F)(F)F)c1)C(F)(F)F value_kind=inhibition recorded_result=100
compound="OC(CN1c2cccc(-c3cccc(OC(F)(F)F)c3)c2OCC1c1ccccc1)C(F)(F)F (mixture of isomers)" value_kind=inhibition recorded_result=43
compound="CCN1c2cccc(-c3cccc(OC(F)(F)F)c3)c2OCC1c1cccc(OC(F)(F)C(F)F)c1 (racemic)" value_kind=inhibition recorded_result=24
compound="OC(CN1c2cccc(-c3cccc(OC(F)(F)F)c3)c2OCC1c1cccc(C(F)(F)F)c1)C(F)(F)F (mixture of isomers)" value_kind=inhibition recorded_result=37
compound="CN(C)CCN1c2cccc(-c3cccc(OC(F)(F)F)c3)c2OCC1c1cccc(OC(F)(F)C(F)F)c1 (racemic)" value_kind=inhibition recorded_result=9
compound="CC(C)C(O)CN1c2cccc(-c3cccc(OC(F)(F)F)c3)c2OCC1c1cccc(OC(F)(F)C(F)F)c1 (mixture of isomers)" value_kind=inhibition recorded_result=86
